target: human recombinant PLK4 (Homo sapiens (Human)); experiment: PLK4 Biochemical Assay (ADP-Glo); details: 0.5 nM PLK4, 8.0 µM ATP, 4.7 µM MBP, 6 hours at RT
Sequence (O00444 whole entry): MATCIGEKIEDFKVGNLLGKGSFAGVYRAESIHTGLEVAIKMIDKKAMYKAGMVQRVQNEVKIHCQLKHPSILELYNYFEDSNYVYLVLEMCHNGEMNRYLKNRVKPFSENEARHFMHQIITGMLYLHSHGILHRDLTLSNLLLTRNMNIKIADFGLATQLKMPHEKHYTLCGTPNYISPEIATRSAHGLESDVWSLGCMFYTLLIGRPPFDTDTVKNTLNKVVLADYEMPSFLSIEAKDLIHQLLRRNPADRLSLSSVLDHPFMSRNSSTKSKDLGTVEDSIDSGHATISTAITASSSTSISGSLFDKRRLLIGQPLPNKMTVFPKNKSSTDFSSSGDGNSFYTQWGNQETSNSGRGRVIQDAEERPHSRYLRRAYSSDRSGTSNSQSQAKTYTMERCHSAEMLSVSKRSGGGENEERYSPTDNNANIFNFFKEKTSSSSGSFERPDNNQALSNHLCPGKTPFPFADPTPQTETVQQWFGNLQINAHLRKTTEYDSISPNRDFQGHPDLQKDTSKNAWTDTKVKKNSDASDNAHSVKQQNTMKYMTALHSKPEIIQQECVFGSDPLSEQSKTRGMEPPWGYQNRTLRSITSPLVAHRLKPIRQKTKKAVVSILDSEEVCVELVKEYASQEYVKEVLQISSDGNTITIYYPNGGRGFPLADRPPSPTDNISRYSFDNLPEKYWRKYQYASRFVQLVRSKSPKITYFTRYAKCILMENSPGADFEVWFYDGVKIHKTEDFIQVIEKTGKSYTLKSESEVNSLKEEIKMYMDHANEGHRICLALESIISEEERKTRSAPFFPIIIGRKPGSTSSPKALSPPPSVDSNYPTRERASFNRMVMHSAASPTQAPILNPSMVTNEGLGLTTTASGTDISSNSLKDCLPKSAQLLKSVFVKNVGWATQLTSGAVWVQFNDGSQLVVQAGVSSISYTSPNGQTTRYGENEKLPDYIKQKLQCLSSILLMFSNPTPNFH
quantity.name: IC50 (nM)

>  <molecule>
COc1ccc2c(c1)[C@]1(C[C@H]1c1ccc3c(Nc4ncncc4C4CC4)n[nH]c3c1)C(=O)N2

>  <val>
18.2

$$$$
>  <molecule>
COc1ccc2c(c1)[C@]1(C[C@H]1c1ccc3c(Nc4ncncc4Cl)n[nH]c3c1)C(=O)N2 (racemic) [Example 3]

>  <val>
9.95

$$$$
>  <molecule>
CCP(=O)(CC)c1ccc(Nc2n[nH]c3cc([C@@H]4C[C@@]45C(=O)Nc4ccc(OC)cc45)ccc23)c(OC)n1

>  <val>
3.91

$$$$
>  <molecule>
COc1ccc2c(c1)[C@]1(C[C@H]1c1ccc3c(Nc4nc(C5CCOCC5)ncc4OC)n[nH]c3c1)C(=O)N2

>  <val>
0.976

$$$$
>  <molecule>
COc1ccc2c(c1)[C@]1(C[C@H]1c1ccc3c(Nc4ncc(C(F)(F)F)cc4OC)n[nH]c3c1)C(=O)N2

>  <val>
8.59

$$$$
>  <molecule>
COc1cnc(C)nc1Nc1n[nH]c2cc([C@@H]3C[C@@]34C(=O)Nc3ccccc34)ccc12

>  <val>
13.6

$$$$
>  <molecule>
COc1ccc2c(c1)[C@]1(C[C@H]1c1ccc3c(Nc4nc(C(C)C)cnc4OC)n[nH]c3c1)C(=O)N2

>  <val>
2.24

$$$$

====

target: human recombinant Aurora A (Homo sapiens (Human), UniProt O14965); experiment: Aurora A Kinase Biochemical Assay (ADP-Glo); settings: ratio of Aurora A IC50 to PLK4 IC50 (selectivity)
Sequence (O14965 whole entry): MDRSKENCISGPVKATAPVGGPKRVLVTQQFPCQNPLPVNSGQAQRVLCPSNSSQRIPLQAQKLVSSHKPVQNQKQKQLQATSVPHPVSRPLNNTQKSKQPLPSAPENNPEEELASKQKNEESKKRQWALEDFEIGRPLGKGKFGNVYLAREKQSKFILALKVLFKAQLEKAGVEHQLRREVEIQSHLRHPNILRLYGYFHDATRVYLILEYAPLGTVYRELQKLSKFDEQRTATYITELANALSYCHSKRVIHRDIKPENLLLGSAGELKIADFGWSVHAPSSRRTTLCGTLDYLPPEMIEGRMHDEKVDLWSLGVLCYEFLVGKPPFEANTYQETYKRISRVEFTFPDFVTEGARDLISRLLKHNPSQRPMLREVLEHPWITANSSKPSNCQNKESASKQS
Reported [Aurora A IC50 (nM)]/[PLK4 IC50 (nM)] by item:
quantity.name: [Aurora A IC50 (nM)]/[PLK4 IC50 (nM)]

>  <cpd.smiles>
COc1ccc2c(c1)[C@]1(C[C@H]1c1ccc3c(Nc4nc(C(C)(C)O)ccc4OC)n[nH]c3c1)C(=O)N2

>  <quantity.name>
[Aurora A IC50 (nM)]/[PLK4 IC50 (nM)]

>  <val>
1269.9004

$$$$
>  <cpd.smiles>
COc1ccc2c(c1)[C@]1(C[C@H]1c1ccc3c(Nc4nc(N5CC6(COC6)C5)ncc4OC)n[nH]c3c1)C(=O)N2

>  <quantity.name>
[Aurora A IC50 (nM)]/[PLK4 IC50 (nM)]

>  <val>
2835.2654

$$$$
>  <cpd.smiles>
COc1ccc2c(c1)[C@]1(C[C@H]1c1ccc3c(Nc4nc(C5CC5)nc(N5CCS(=O)(=O)CC5)c4Cl)n[nH]c3c1)C(=O)N2

>  <quantity.name>
[Aurora A IC50 (nM)]/[PLK4 IC50 (nM)]

>  <val>
1376.93

$$$$
>  <cpd.smiles>
COc1ccc2c(c1)[C@]1(C[C@H]1c1ccc3c(Nc4nc(OC)ncc4Cl)n[nH]c3c1)C(=O)N2

>  <quantity.name>
[Aurora A IC50 (nM)]/[PLK4 IC50 (nM)]

>  <val>
215.5309

$$$$
>  <cpd.smiles>
CNC(=O)c1ccc(OC)c(Nc2n[nH]c3cc([C@@H]4C[C@@]45C(=O)Nc4ccc(OC)cc45)ccc23)c1

>  <quantity.name>
[Aurora A IC50 (nM)]/[PLK4 IC50 (nM)]

>  <val>
11750.8813

$$$$
>  <cpd.smiles>
COc1ccc2c(c1)[C@]1(C[C@H]1c1ccc3c(Nc4nc(C5CNC5)cnc4OC)n[nH]c3c1)C(=O)N2

>  <quantity.name>
[Aurora A IC50 (nM)]/[PLK4 IC50 (nM)]

>  <val>
679.6315

$$$$
>  <cpd.smiles>
COc1ccc2c(c1)[C@]1(C[C@H]1c1ccc3c(Nc4cc(N5CC(O)C5)nc(C(C)C)n4)n[nH]c3c1)C(=O)N2

>  <quantity.name>
[Aurora A IC50 (nM)]/[PLK4 IC50 (nM)]

>  <val>
234.7231

$$$$
>  <cpd.smiles>
COc1ccc2c(c1)[C@@]1(C[C@@H]1c1ccc3c(Nc4ncncc4OC)n[nH]c3c1)C(=O)N2

>  <quantity.name>
[Aurora A IC50 (nM)]/[PLK4 IC50 (nM)]

>  <val>
17.61

$$$$
>  <cpd.smiles>
COc1ccc2c(c1)[C@]1(C[C@H]1c1ccc3c(Nc4nc(C(C)C)nc(N5CCOCC5)c4OC)n[nH]c3c1)C(=O)N2

>  <quantity.name>
[Aurora A IC50 (nM)]/[PLK4 IC50 (nM)]

>  <val>
5554.974

$$$$
>  <cpd.smiles>
COc1ccc2c(c1)[C@]1(C[C@H]1c1ccc3c(Nc4cc(C)cnc4OC)n[nH]c3c1)C(=O)N2

>  <quantity.name>
[Aurora A IC50 (nM)]/[PLK4 IC50 (nM)]

>  <val>
1736.729

$$$$
>  <cpd.smiles>
COc1ccc2c(c1)[C@]1(C[C@H]1c1ccc3c(Nc4ncc(N5CCOCC5)nc4OC)n[nH]c3c1)C(=O)N2

>  <quantity.name>
[Aurora A IC50 (nM)]/[PLK4 IC50 (nM)]

>  <val>
533.856

$$$$
>  <cpd.smiles>
COc1ccc2c(c1)[C@]1(C[C@H]1c1ccc3c(Nc4nc(C5CC5)ncc4Cl)n[nH]c3c1)C(=O)N2

>  <quantity.name>
[Aurora A IC50 (nM)]/[PLK4 IC50 (nM)]

>  <val>
788.5813

$$$$
>  <cpd.smiles>
COc1ccc2c(c1)[C@]1(C[C@H]1c1ccc3c(Nc4nc(C)nc(N5CCS(=O)(=O)CC5)c4Cl)n[nH]c3c1)C(=O)N2

>  <quantity.name>
[Aurora A IC50 (nM)]/[PLK4 IC50 (nM)]

>  <val>
1393.782

$$$$
>  <cpd.smiles>
COc1ccc2c(c1)[C@]1(C[C@H]1c1ccc3c(Nc4nc(C)nc(N5CCS(=O)(=O)CC5)c4OC)n[nH]c3c1)C(=O)N2

>  <quantity.name>
[Aurora A IC50 (nM)]/[PLK4 IC50 (nM)]

>  <val>
3527.559

$$$$
>  <cpd.smiles>
COc1ccc2c(c1)[C@]1(C[C@H]1c1ccc3c(Nc4ccc(C(=O)N5CC6CCC(C5)O6)nc4OC)n[nH]c3c1)C(=O)N2

>  <quantity.name>
[Aurora A IC50 (nM)]/[PLK4 IC50 (nM)]

>  <val>
426.8090

$$$$
>  <cpd.smiles>
COc1ccc2c(c1)[C@]1(C[C@H]1c1ccc3c(Nc4cc(-c5ncco5)cnc4OC)n[nH]c3c1)C(=O)N2

>  <quantity.name>
[Aurora A IC50 (nM)]/[PLK4 IC50 (nM)]

>  <val>
608.9799

$$$$
>  <cpd.smiles>
COc1ccc2c(c1)[C@]1(C[C@H]1c1ccc3c(Nc4nc(C)ccc4OC)n[nH]c3c1)C(=O)N2

>  <quantity.name>
[Aurora A IC50 (nM)]/[PLK4 IC50 (nM)]

>  <val>
1997.754

$$$$
>  <cpd.smiles>
COc1ccc2c(c1)[C@]1(C[C@H]1c1ccc3c(Nc4cc(N5CCS(=O)(=O)CC5)nc(C)n4)n[nH]c3c1)C(=O)N2

>  <quantity.name>
[Aurora A IC50 (nM)]/[PLK4 IC50 (nM)]

>  <val>
69.69

$$$$
>  <cpd.smiles>
COc1ccc2c(c1)[C@]1(C[C@H]1c1ccc3c(Nc4cc(S(=O)(=O)C(C)C)ccc4OC)n[nH]c3c1)C(=O)N2

>  <quantity.name>
[Aurora A IC50 (nM)]/[PLK4 IC50 (nM)]

>  <val>
15179.1135

$$$$
>  <cpd.smiles>
COc1ccc2c(c1)[C@]1(C[C@H]1c1ccc3c(Nc4cc5c(cc4OC)C(=O)N(C)C5)n[nH]c3c1)C(=O)N2

>  <quantity.name>
[Aurora A IC50 (nM)]/[PLK4 IC50 (nM)]

>  <val>
686

$$$$
>  <cpd.smiles>
COc1ccc2c(c1)[C@]1(C[C@H]1c1ccc3c(Nc4ncc(P(C)(C)=O)nc4OC)n[nH]c3c1)C(=O)N2

>  <quantity.name>
[Aurora A IC50 (nM)]/[PLK4 IC50 (nM)]

>  <val>
1669.4278

$$$$
>  <cpd.smiles>
COc1ccc2c(c1)[C@]1(C[C@H]1c1ccc3c(Nc4nc(N5CC(F)C5)ncc4OC)n[nH]c3c1)C(=O)N2

>  <quantity.name>
[Aurora A IC50 (nM)]/[PLK4 IC50 (nM)]

>  <val>
365.8511

$$$$
>  <cpd.smiles>
COc1ccc2c(c1)[C@]1(C[C@H]1c1ccc3c(Nc4cc(OC)c(S(N)(=O)=O)cc4OC)n[nH]c3c1)C(=O)N2

>  <quantity.name>
[Aurora A IC50 (nM)]/[PLK4 IC50 (nM)]

>  <val>
353.1230

$$$$
>  <cpd.smiles>
COc1ccc2c(c1)[C@]1(C[C@H]1c1ccc3c(Nc4nc(C)cnc4C)n[nH]c3c1)C(=O)N2.O=C(O)C(F)(F)F

>  <quantity.name>
[Aurora A IC50 (nM)]/[PLK4 IC50 (nM)]

>  <val>
187.8524

$$$$
>  <cpd.smiles>
COc1ccc2c(c1)[C@]1(C[C@H]1c1ccc3c(Nc4cn(C)nc4C(F)(F)F)n[nH]c3c1)C(=O)N2

>  <quantity.name>
[Aurora A IC50 (nM)]/[PLK4 IC50 (nM)]

>  <val>
210.2116

$$$$
>  <cpd.smiles>
COc1ccc2c(c1)[C@]1(C[C@H]1c1ccc3c(Nc4ccc(C(=O)N(C)C)nc4OC)n[nH]c3c1)C(=O)N2

>  <quantity.name>
[Aurora A IC50 (nM)]/[PLK4 IC50 (nM)]

>  <val>
1151.3716

$$$$
>  <cpd.smiles>
COc1ccc2c(c1)[C@]1(C[C@H]1c1ccc3c(Nc4cc(C(=O)N(C)C)ccc4OC)n[nH]c3c1)C(=O)N2

>  <quantity.name>
[Aurora A IC50 (nM)]/[PLK4 IC50 (nM)]

>  <val>
1725.2902

$$$$

Source of measurements: patent US20230365537A1
